Test system: A673/TR/shEF
Assay: cell viability (LOESS-normalised, relative to median of negative controls) (log2 ratio); higher = more viable cells (less compound effect), active = hit call of the paper (over 3 MAD below the median)
Run parameters: 0.25 µM; library screen: screen1; EWS-FLI1 expression: low (doxycycline-induced shRNA knockdown); treatment time: 72 h
Screen size: about 3,200 compounds; about 300 (9.4%) showed activity. The entries come from a sample that favours actives as a whole.
The following compounds are shown together with reported cell viability (log2) values.

| Smiles repr | cell viability (log2) |
| --- | --- |
| CC[C@H](/C=C/[C@@H](C)[C@H]1CC[C@H]2[C@@H]3CCC4=CC(=O)CC[C@]4(C)[C@H]3CC[C@]12C)C(C)C | 0.0569 (inactive) |
| NC(N)=NCCN1CCCCCCC1 | 0.0896 (inactive) |
| CC(C)CCC[C@@H](C)[C@H]1CC[C@H]2C3=CC[C@H]4C[C@@H](O)CC[C@]4(C)[C@H]3CC[C@]12C | -0.021 (inactive) |
| Nc1ncnc2c1ncn2[C@@H]1O[C@H](COP(=O)(O)O)[C@@H](O)[C@H]1O | -0.0633 (inactive) |
| N/C(=N/c1nc2ccccc2o1)NC(=O)c1cccc(Br)c1 | -0.0125 (inactive) |
| CC(=O)O[C@@H]1c2c(ccc3ccc(=O)oc23)OC(C)(C)[C@@H]1OC(=O)CC(C)C | -0.0116 (inactive) |
| COCCN1C(=O)C(=Cc2c(Cl)cccc2Cl)SC1=S | 0.208 (inactive) |
| O=c1cccc2cc(O)c(O)c(O)c2c1O | -0.0453 (inactive) |

----------
Tested on: A673/TR/shEF
Assay: cell viability (LOESS-normalised, relative to median of negative controls) (log2 ratio); higher = more viable cells (less compound effect), active = hit call of the paper (over 3 MAD below the median)
Run parameters: 0.25 µM; library screen: screen2; EWS-FLI1 expression: high (no doxycycline); treatment time: 72 h
The whole screen tested about 3,200 compounds, of which about 300 (9.4%) showed activity. Many of the other results were omitted from the sample, so actives are more common in it than they were.
# note: exactly 0.1 is not below, so it is no; use yes for cell viability (log2) strictly under it

| Compound | Assigned category |
| --- | --- |
| NNCCc1ccccc1 | no |
| COC(=O)Nc1nc2ccc(Sc3ccccc3)cc2[nH]1 | no |
| CCN(CC)CCCC(C)Nc1c2ccc(Cl)cc2nc2ccc(OC)cc12 (stereo unspecified) | yes |
| NC[C@@H]1O[C@H](O[C@@H]2[C@@H](CO)OC(O[C@H]3C(O[C@H]4O[C@H](CO)[C@@H](O)[C@H](O)[C@H]4N)[C@@H](N)C[C@@H](N)[C@@H]3O)[C@@H]2O)[C@H](N)[C@@H](O)[C@@H]1O (stereo partly specified) | no |
| CNc1ncnc2c1ncn2[C@@H]1O[C@H](CO)[C@@H](O)[C@H]1O | no |
| CN1[C@@H]2CC[C@@H]1CC(OC(c1ccccc1)c1ccccc1)C2 (stereo partly specified) | no |
| CC(C)[C@@H]1NC(=O)[C@H](CCCCN)NC(=O)[C@@H](Cc2c[nH]c3ccccc23)NC(=O)[C@H](Cc2ccc(O)cc2)NC(=O)[C@H](C)N(C)C(=O)[C@H](Cc2ccccc2)NC1=O | no |
| CCN(CC)CCNC(=O)c1ccc(N)cc1 | no |
| Nc1ncn([C@@H]2O[C@H](CO)[C@@H](O)[C@H]2O)c(=O)n1 | yes |
| COc1ccc2c(c1)c(CC(=O)Nc1ccc(NC(C)=O)cc1)c(C)n2C(=O)c1ccc(Cl)cc1 | yes |
| Cn1cnc([N+](=O)[O-])c1Sc1ncnc2nc[nH]c12 | no |
| COc1cc(NC(C)CCCN)c2ncccc2c1 (stereo unspecified) | yes |
| CC(C)(C)c1onc(OCP(=O)(O)O)c1CC(N)C(=O)O (stereo unspecified) | yes |
| CNCCNS(=O)(=O)c1cccc2cnccc12 | no |
| NC(C(=O)O)c1cccc(O)c1 (stereo unspecified) | no |
| NC(Cc1ccc(F)cc1)C(=O)O (stereo unspecified) | no |
| CCCCCCCCCCCCCCCC(=O)NCCO | no |
| CN(C)CCCN1c2ccccc2Sc2ccc(C(F)(F)F)cc21 | yes |
| Nc1ncnc2c1ncn2C1CCCC1 | no |
| NCCNS(=O)(=O)c1cccc2cnccc12 | no |
| COC(=O)Nc1nc2ccc(C(=O)c3ccccc3)cc2[nH]1 | no |
| C[C@H]1c2cccc(O)c2C(O)=C2C(=O)[C@]3(O)C(O)=C(C(N)=O)C(=O)[C@@H](N(C)C)[C@@H]3[C@@H](O)[C@@H]21 | yes |
| NC1(C(=O)O)CCc2cc(C(=O)O)ccc21 (stereo unspecified) | yes |
| CN(C)CC/C=C1\c2ccccc2COc2ccccc21 | yes |
| NC(=O)c1ncn([C@@H]2O[C@H](CO)[C@@H](O)[C@H]2O)n1 | yes |

All values here come from the supplement of paper PMC6089552.
